- target.or.test.system: H^+ /K^+ ATPase (Oryctolagus cuniculus)
- Construct: Rabbit gastric glands are isolated from gastric mucosa from the corpus region of the stomach; from tissue; host or cells: isolated gastric glands from rabbit gastric mucosa, corpus region of the stomach
- assay.explanation: inhibition of 14C-aminopyrine accumulation in rabbit isolated gastric glands stimulated by DBcAMP or high K+ (H+/K+ ATPase inhibition)
- Format: cell-based
- condition.label: DBcAMP stimulation, 10^-4 M, 14C-aminopyrine uptake, read-out: % Inhibition to Stimulation by DBcAMP at 10^-4
parameter: inhibition at 100 µM (%)
The figure you give is taken to be in %; do not add the unit.

C1=Cc2cccc3nc(SCc4ccccn4)n(c23)C1    16.7
COc1cc2c3c(c1)nc(SCc1ccncc1)n3CCC2    68
c1ccc(-c2nc(CSc3nc4cccc5c4n3CCC5)cs2)cc1    75
c1cc2c3c(c1)nc(SCc1ccncc1)n3CCC2    66
c1ccc2nc(CSc3nc4cccc5c4n3CCC5)ccc2c1    62

Exam item: Supply recorded inhibition at 100 µM for c1ccc(CSc2nc3cccc4c3n2CCC4)nc1 here.
Marked response: 34

Exam item: Supply recorded inhibition at 100 µM for Cc1cnc(CSc2nc3cccc4c3n2CCC4)c(C)c1 here.
Marked response: 70

Exam item: Supply recorded inhibition at 100 µM for COc1cc2c3c(c1)nc(SCc1ccc4ccccc4n1)n3CCC2 here.
Marked response: 70

Exam item: Supply recorded inhibition at 100 µM for Cc1cccnc1C[S+]([O-])c1nc2cccc3c2n1CCC3 (stereo not shown) here.
Marked response: 66

Exam item: Supply recorded inhibition at 100 µM for Cc1cnc(C[S+]([O-])c2nc3cccc4c3n2CCC4)c(C)c1 (stereo not shown) here.
Marked response: 48

Exam item: Supply recorded inhibition at 100 µM for [O-][S+](Cc1ccccn1)c1nc2cccc3c2n1CCC3 (stereo not shown) here.
Marked response: 97

Exam item: Supply recorded inhibition at 100 µM for COc1cc2c3c(c1)nc(SCc1cccc(-c4ccccc4)n1)n3CCC2 [Example 10B] here.
Marked response: 98

Exam item: Supply recorded inhibition at 100 µM for c1ccc(-c2cccc(CSc3nc4cccc5c4n3CCC5)n2)cc1 here.
Marked response: 36

---

- target.or.test.system: H^+ /K^+ ATPase (Oryctolagus cuniculus, UniProt P27112)
- Construct: Rabbit gastric glands are isolated from gastric mucosa from the corpus region of the stomach; from tissue; host or cells: isolated gastric glands from rabbit gastric mucosa, corpus region of the stomach
- Sequence (P27112 whole entry): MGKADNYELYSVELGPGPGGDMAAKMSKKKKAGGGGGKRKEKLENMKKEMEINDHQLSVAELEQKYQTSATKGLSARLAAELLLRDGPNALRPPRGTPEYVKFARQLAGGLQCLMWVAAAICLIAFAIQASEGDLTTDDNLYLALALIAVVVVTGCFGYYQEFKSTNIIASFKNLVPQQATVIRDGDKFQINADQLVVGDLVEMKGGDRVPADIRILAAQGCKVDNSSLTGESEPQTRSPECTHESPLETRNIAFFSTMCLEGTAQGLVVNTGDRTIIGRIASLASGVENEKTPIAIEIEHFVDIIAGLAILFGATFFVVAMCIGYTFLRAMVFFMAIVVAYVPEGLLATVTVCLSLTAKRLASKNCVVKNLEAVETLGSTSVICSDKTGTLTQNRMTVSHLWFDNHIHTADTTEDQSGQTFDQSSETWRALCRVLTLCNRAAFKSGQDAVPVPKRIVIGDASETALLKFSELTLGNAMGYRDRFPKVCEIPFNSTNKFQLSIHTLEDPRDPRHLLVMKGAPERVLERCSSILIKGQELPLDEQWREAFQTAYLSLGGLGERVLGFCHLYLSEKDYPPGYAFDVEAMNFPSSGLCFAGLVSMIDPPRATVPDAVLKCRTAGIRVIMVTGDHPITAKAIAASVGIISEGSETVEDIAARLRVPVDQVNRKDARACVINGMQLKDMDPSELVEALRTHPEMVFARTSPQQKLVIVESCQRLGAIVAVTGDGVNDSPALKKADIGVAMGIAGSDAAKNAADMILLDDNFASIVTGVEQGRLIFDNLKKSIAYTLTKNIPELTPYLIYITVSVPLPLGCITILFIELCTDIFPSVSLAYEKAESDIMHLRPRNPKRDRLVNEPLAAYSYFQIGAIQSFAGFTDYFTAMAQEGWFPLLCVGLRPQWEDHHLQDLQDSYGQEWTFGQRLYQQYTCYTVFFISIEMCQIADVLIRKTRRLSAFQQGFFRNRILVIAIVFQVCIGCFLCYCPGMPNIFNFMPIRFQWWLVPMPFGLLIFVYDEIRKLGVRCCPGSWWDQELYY
- Sequence (P18597 whole entry partner): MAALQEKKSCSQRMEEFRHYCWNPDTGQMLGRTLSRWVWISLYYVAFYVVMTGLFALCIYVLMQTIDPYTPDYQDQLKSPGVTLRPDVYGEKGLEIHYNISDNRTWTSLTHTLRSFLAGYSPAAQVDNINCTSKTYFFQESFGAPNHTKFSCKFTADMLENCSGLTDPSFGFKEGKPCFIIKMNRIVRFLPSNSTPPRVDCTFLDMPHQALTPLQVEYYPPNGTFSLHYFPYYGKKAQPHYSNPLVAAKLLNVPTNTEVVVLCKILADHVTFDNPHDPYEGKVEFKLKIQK
- assay.explanation: inhibition of 14C-aminopyrine accumulation in rabbit isolated gastric glands stimulated by DBcAMP or high K+ (H+/K+ ATPase inhibition)
- Format: cell-based
- condition.label: high K+ stimulation, 10^-4 M, 14C-aminopyrine uptake, read-out: % Inhibition to Stimulation by K^+ at 10^-4
inhibition at 100 µM reference
The figure you give is taken to be in %; do not add the unit.

Solved entries (count: 2):
C1=Cc2cccc3nc(SCc4ccccn4)n(c23)C1    35.5
c1ccc(-c2cccc(CSc3nc4cccc5c4n3CCC5)n2)cc1    182

Exam item: Give inhibition at 100 µM only, for Cc1cccnc1CSc1nc2cccc3c2n1CCC3 , using H^+ /K^+ ATPase (Oryctolagus cuniculus, UniProt P27112) data.
Marked response: -109

Exam item: Give inhibition at 100 µM only, for COc1cc2c3c(c1)nc(SCc1ccc4ccccc4n1)n3CCC2 , using H^+ /K^+ ATPase (Oryctolagus cuniculus, UniProt P27112) data.
Marked response: 124

Exam item: Give inhibition at 100 µM only, for c1ccc2nc(CSc3nc4cccc5c4n3CCC5)ccc2c1 , using H^+ /K^+ ATPase (Oryctolagus cuniculus, UniProt P27112) data.
Marked response: 147

Exam item: Give inhibition at 100 µM only, for Cc1cnc(CSc2nc3cccc4c3n2CCC4)c(C)c1 , using H^+ /K^+ ATPase (Oryctolagus cuniculus, UniProt P27112) data.
Marked response: 74

Exam item: Give inhibition at 100 µM only, for COc1cc2c3c(c1)nc(SCc1cccc(-c4ccccc4)n1)n3CCC2 [Example 10B] , using H^+ /K^+ ATPase (Oryctolagus cuniculus, UniProt P27112) data.
Marked response: 136

Exam item: Give inhibition at 100 µM only, for c1ccc(-c2nc(CSc3nc4cccc5c4n3CCC5)cs2)cc1 , using H^+ /K^+ ATPase (Oryctolagus cuniculus, UniProt P27112) data.
Marked response: 122

Exam item: Give inhibition at 100 µM only, for [O-][S+](Cc1ccccn1)c1nc2cccc3c2n1CCC3 (stereo not drawn) , using H^+ /K^+ ATPase (Oryctolagus cuniculus, UniProt P27112) data.
Marked response: 65

Where do these numbers come from? They come from patent US4703044A.
